# Test system: T cells isolated from mouse spleen
# assay.summary: T cell proliferation inhibition, CFSE flow cytometry, CD3/CD28 activation
# Assay type: cell-based
# experimental.parameters: compound 30 μM, CD3/CD28 activated, 3 days
# Description: To verify the T cell proliferation inhibitory effect of the compounds according to the present invention, the following experiment was performed based on flow cytometry analysis using carboxyfluorescein diacetate succinimidyl ester (CFSE), a fluorescent dye that binds to intracellular molecules via covalent bonds. […] The proliferation inhibition rate (%) was calculated using the following formula: […]
measured.quantity: Proliferation inhibition rate (%)
I'd appreciate it if you wrote the number followed by its unit.

INPUT: Tell me the measured Proliferation inhibition rate (%) of `C[C@H]1CNCCN1CCCCCCCCCCCCNC(=O)c1cccnc1N.Cl` , please.
OUTPUT: 100.00%

INPUT: Reported Proliferation inhibition rate (%) for `Cl.Nc1ncccc1C(=O)NCCCCCCCCCCCCN1CC[C@H](N)C1` : what is it?
OUTPUT: 100.00%

INPUT: I would be grateful if you could share the reported Proliferation inhibition rate (%) for CC1CNCCN1CCCCCCCCCCCCNC(=O)c1cccnc1N (stereo not shown) .
OUTPUT: 100.00%

New cases:
INPUT: I am curious: what Proliferation inhibition rate (%) value has been reported for `CN(CCCCCCCCCCCCNC(=O)c1cccnc1N)C(C)(C)C` ?
OUTPUT: 100.00%

INPUT: Which Proliferation inhibition rate (%) is reported for this compound? Nc1ncccc1C(=O)NCCCCCCCCCCCCNC1CCOC1 (stereo not shown)
OUTPUT: 100.00%

INPUT: Could you tell me which Proliferation inhibition rate (%) is on file for CC1CCCN(CCCCCCCCCCCCNC(=O)c2cccnc2N)CC1 (stereo not shown) ?
OUTPUT: 100.00%

INPUT: Report Proliferation inhibition rate (%) for `Nc1ncccc1C(=O)NCCCCCCCCCCCCN1CCOC1=O` please.
OUTPUT: 100.00%

###

# Tested on: Human B Lymphocyte cell line, SU-DHL-8
# assay.summary: Relative cell viability, CCK-8, SU-DHL-8
# Format: cell-based
# experimental.parameters: SU-DHL-8, 30 μM, 48 hours
Quick reference: Relative cell viability (%) of the listed items.
Hi! Could you send only the number? It should be in %, unit omitted.

INPUT: Quick check: Relative cell viability (%) of `Cc1ccc(C2CCN(CCCCCCCCCCCCNC(=O)c3cccnc3N)CC2)cc1` ?
OUTPUT: 1.10

---
INPUT: Which measured Relative cell viability (%) value corresponds to CC1CNCCN1CCCCCCCCCCCCNC(=O)c1cccnc1N (stereo not shown) ?
OUTPUT: 0.42

INPUT: Quick one: Relative cell viability (%) of `CC1(C)CN(CCCCCCCCCCCCC(=O)Nc2nc(N)c3[nH]cnc3n2)CCO1` ?
OUTPUT: 4.82

INPUT: Sample `Nc1ncccc1C(=O)NCCCCCCCCCCCCN1CCS(=O)(=O)CC1` — what was its Relative cell viability (%)?
OUTPUT: 0.11

###

# Tested on: T cells isolated from mouse spleen
# assay.summary: T cell proliferation inhibition, CFSE flow cytometry, CD3/CD28 activation
# Format: cell-based
# experimental.parameters: compound 30 μM, CD3/CD28 activated, 3 days
# Experimental: To verify the T cell proliferation inhibitory effect of the compounds according to the present invention, the following experiment was performed based on flow cytometry analysis using carboxyfluorescein diacetate succinimidyl ester (CFSE), a fluorescent dye that binds to intracellular molecules via covalent bonds. […] The proliferation inhibition rate (%) was calculated using the following formula: […]
measured.quantity: Proliferation inhibition rate (%)
Report the figure in % without appending any unit label.

Solved cases (8 shown):
INPUT: For the compound shown here, Cc1ccc(C2CCN(CCCCCCCCCCCCNC(=O)c3cccnc3N)CC2)cc1 [Compound 55] , give the reported Proliferation inhibition rate (%).
OUTPUT: 100.00

INPUT: Quick check: Proliferation inhibition rate (%) of CC1CN(CCCCCCCCCCCCNC(=O)c2cccnc2N)CC(C)O1 (centres unmarked) [Compound 21] ?
OUTPUT: 100.00

INPUT: May I ask what Proliferation inhibition rate (%) has been recorded for CC(C)N1CCN(CCCCCCCCCCCCNC(=O)c2cccnc2N)CC1 [Compound 104] ?
OUTPUT: 100.00

INPUT: Tell me the measured Proliferation inhibition rate (%) of Nc1ncccc1C(=O)NCCCCCCCCCCCCN1CCN(C=O)CC1 [Compound 97] , please.
OUTPUT: 100.00

INPUT: Reported Proliferation inhibition rate (%), compound COC1CCN(CCCCCCCCCCCCNC(=O)c2cccnc2N)CC1 [Compound 94] : ____
OUTPUT: 100.00

INPUT: Given the compound Nc1ncccc1C(=O)NCCCCCCCCCCCCN1CC=CC1 [Compound 129] , what is its reported Proliferation inhibition rate (%)?
OUTPUT: 100.00

INPUT: Consider the compound shown here: Cl.O=C(NCCCCCCCCCCCCN1CCNCC1)c1ccc(-c2ccccc2)o1 [Compound 90] What is its recorded Proliferation inhibition rate (%)?
OUTPUT: 100.00

INPUT: Need Proliferation inhibition rate (%) of CC1CN(CCCCCCCCCCCCNC(=O)c2cccnc2N)C(C)CN1.Cl (centres unmarked) [Compound 36] , thanks.
OUTPUT: 100.00

Continuing:
INPUT: Recorded Proliferation inhibition rate (%) for CC(C)(C)OC(=O)N1CCN(CCCCCCCCCCCCNC(=O)c2cccnc2N)CC1 [Compound 111] , please?
OUTPUT: 100.00

INPUT: Quick check: Proliferation inhibition rate (%) of Nc1ncccc1C(=O)NCCCCCCCCCCCCN1CCC(Oc2ccncc2)CC1 [Compound 38] ?
OUTPUT: 100.00

INPUT: So what's the measured Proliferation inhibition rate (%) for this one? Nc1ncccc1C(=O)NCCCCCCCCCCCCN1CCC(F)C1 (centres unmarked) [Compound 26]
OUTPUT: 100.00

###

Catalogue of Relative cell viability (%) readings, one per entry.
# Test system: Human B Lymphocyte cell line, SU-DHL-8
# assay.summary: Relative cell viability, CCK-8, SU-DHL-8
# Format: cell-based
# experimental.parameters: SU-DHL-8, 10 μM, 48 hours
Record the value in %, omitting the unit from your answer.

Study these solved cases before continuing.
INPUT: I'm curious: which Relative cell viability (%) was measured for CC1CNCCN1CCCCCCCCCCCCNC(=O)c1cccnc1N (stereo not shown) tested on Human B Lymphocyte cell line, SU-DHL-8?
OUTPUT: 0.64

INPUT: Record `CC1(C)CN(CCCCCCCCCCCCC(=O)Nc2nc(N)c3[nH]cnc3n2)CCO1` : what is its Relative cell viability (%) with Human B Lymphocyte cell line, SU-DHL-8?
OUTPUT: 6.09

INPUT: Reported Relative cell viability (%) for Human B Lymphocyte cell line, SU-DHL-8, given `Nc1ncccc1C(=O)NCCCCCCCCCCCCN1CCC(Oc2ccncc2)CC1` ?
OUTPUT: 3.30

Let us examine a further case.
INPUT: Record CN1CCN(C(=O)OC(C)(C)C)CC1CCCCCCCCNC(=O)c1cccnc1N (stereo not shown) : what is its Relative cell viability (%) with Human B Lymphocyte cell line, SU-DHL-8?
OUTPUT: 3.79

###

# Tested on: Human B Lymphocyte cell line, SU-DHL-8
# assay.summary: Relative cell viability, CCK-8, SU-DHL-8
# Format: cell-based
# experimental.parameters: SU-DHL-8, 30 μM, 48 hours
measured.quantity: Relative cell viability (%)
Value and unit, in that order.

Recorded results for 4 compounds are shown here.
INPUT: Which measured Relative cell viability (%) value corresponds to CC1CCN(CCCCCCCCCCCCNC(=O)c2cccnc2N)C1 (centres unmarked) [Compound 24] ?
OUTPUT: 0.62%

INPUT: Query (compound): Nc1ncccc1C(=O)NCCCCCCCCCCCCN1CCC(F)C1 (centres unmarked) [Compound 26] ; field requested: Relative cell viability (%)
OUTPUT: 0.05%

INPUT: Entry CC1CN(CCCCCCCCCCCCNC(=O)c2cccnc2N)CC(C)O1 (centres unmarked) [Compound 21] : reported Relative cell viability (%) = ?
OUTPUT: 3.70%

INPUT: Endpoint output: Relative cell viability (%) of CN1CCN(C(=O)OC(C)(C)C)CC1CCCCCCCCNC(=O)c1cccnc1N (centres unmarked) [Compound 12] . Value?
OUTPUT: 1.64%

Field: next compound
INPUT: Would you mind telling me what Relative cell viability (%) value was observed for Cc1ccc(OC2CCN(CCCCCCCCCCCCNC(=O)c3cccnc3N)CC2)cc1 [Compound 51] ?
OUTPUT: 0.89%
